test system: Trichophyton mentagrophytes (T. mentagrophytes) ATCC18748; test: Antifungal activity test against dermatophytes (MIC); format: cell-based; settings: 80% growth inhibiting concentration, RPMI1640/MOPS, 28° C., 3 days, WST8
property-name: MIC (T. mentagrophytes)

Illustrative cases are given below, each with its answer.
{"molecule": "Cc1nn(-c2cc(O)ccc2O)c(C)c1Cl", "assay-result": "C (16 to 32 μg/ml)"}
{"molecule": "Cc1cc(C)n(-c2ccccc2O)n1", "assay-result": "B (2 to 8 μg/ml)"}
{"molecule": "Cc1cc(C)n(-c2ccc(Cl)cc2O)n1", "assay-result": "A (≤1 μg/ml)"}
{"molecule": "Cc1nn(-c2ccc(Br)cc2O)c(C)c1Cl", "assay-result": "A (≤1 μg/ml)"}
{"molecule": "Cc1cc(C)n(-c2cccc(Cl)c2O)n1", "assay-result": "C (16 to 32 μg/ml)"}
{"molecule": "Cc1cc(C)n(-c2ccc(C(=O)N(C)C)cc2O)n1", "assay-result": "C (16 to 32 μg/ml)"}

Name the reported MIC (T. mentagrophytes) value associated with the compound COC(=O)CCc1c(C)nn(-c2ccccc2O)c1C
C (16 to 32 μg/ml)

Here is the next compound: Cc1cc(C)n(-c2ccc(C(=O)O)cc2O)n1
B (2 to 8 μg/ml)

Here is the next compound: COc1ccc(-n2nc(C)cc2C)c(O)c1
A (≤1 μg/ml)
